These measurements were taken from ChEMBL document CHEMBL1201862.

- Test system: TK-10
- protocol.notes: NCI tumour cell line growth inhibition, 48 h
The source made the active and inactive calls. No stated cut-off is given here; in the data, active = GI50 up to about 1.1 µM and inactive = higher.
test.readout: GI50

Answered cases to consult:
Ask: Let me know recorded GI50 for `NC(N)=NCCC[C@H](N)C(=O)NCC(=O)N[C@@H](CC(=O)O)c1ncc(NC(=O)C(F)(F)F)o1` , thanks.
Reply: > 25 µM (inactive)

Ask: Let me know recorded GI50 for `COc1c(O)ccc(C2=Cc3ccc(O)cc3OC2)c1OC` , thanks.
Reply: 55.2 µM (inactive)

Ask: Let me know recorded GI50 for COc1ccc(C2C(C#N)=C(S)N(C3OC(COC(C)=O)C(OC(C)=O)C(OC(C)=O)C3OC(C)=O)C(c3ccccc3)=C2C(C)=O)cc1 (stereo not given) , thanks.
Reply: > 100 µM (inactive)

Ask: Let me know recorded GI50 for `O=C(O)Cc1cc(=O)[nH]c2c1C(=O)CCC2` , thanks.
Reply: > 100 µM (inactive)

Ask: Let me know recorded GI50 for `C[C@]12CC[C@@H]3c4ccc(O)cc4CC[C@H]3[C@@H]1C/C(=C\c1ccncc1)[C@@H]2O` , thanks.
Reply: 22.9 µM (inactive)

Further cases:
Ask: Let me know recorded GI50 for `O=C1C=CC(=O)N1Nc1ccc([N+](=O)[O-])cc1[N+](=O)[O-]` , thanks.
Reply: > 100 µM (inactive)

Ask: Let me know recorded GI50 for `O=C(/C=C/c1cccc([N+](=O)[O-])c1)c1ccc([N+](=O)[O-])cc1` , thanks.
Reply: > 100 µM (inactive)

###

- System: OVCAR-5
- protocol.notes: NCI tumour cell line growth inhibition, 48 h
Activity calls are given as the source filed them. Rule as the data show it: active = GI50 up to about 1.1 µM and inactive = higher.
Please reply with one of these outcomes: active, inactive

Ask: Kindly provide the recorded test outcome for the following molecule: C=C(C)C12OC3(c4ccccc4)OC1C1C4OC4(CO)C(O)C4(O)C(=O)C(C)=CC4C1(O3)C(C)C2OC(=O)/C=C/C=C/c1ccccc1 (stereo not given)
Reply: active

Ask: Kindly provide the recorded test outcome for the following molecule: O=C(O)C(Br)C(Br)c1ccccc1[N+](=O)[O-] (stereo not given)
Reply: inactive

Further cases:
Ask: Kindly provide the recorded test outcome for the following molecule: CCOC(=O)c1c(-c2ccc(Cl)cc2)c(C#N)c(=S)n(C2OC(COC(C)=O)C(OC(C)=O)C(OC(C)=O)C2OC(C)=O)c1-c1ccccc1 (stereo not given)
Reply: inactive

Ask: Kindly provide the recorded test outcome for the following molecule: `CO[C@@H]1C[C@H]2[C@@H]3CC[C@H]([C@@H](C)COC(C)=O)[C@@]3(C)CC[C@@H]2[C@@]2(C)CC[C@H]3C[C@]312`
Reply: inactive

Ask: Kindly provide the recorded test outcome for the following molecule: `C=CCN1C(=O)CS/C1=N\NC(=O)c1c(C)nc2sccn12`
Reply: inactive

###

- Tested on: MDA-N
- protocol.notes: NCI tumour cell line growth inhibition, 48 h
Activity calls are given as the source filed them. No stated cut-off is given here; in the data, active = GI50 up to about 1.1 µM and inactive = higher.
Please reply with one of these outcomes: yes (1) (active), no (0) (inactive)

Solved entries:
Ask: Kindly provide the recorded test outcome for the following compound: `Cc1[nH]c(=O)[nH]c(=O)c1C(=O)N(CCO)Cc1ccccc1`
Reply: no (0)

Ask: Kindly provide the recorded test outcome for the following compound: COc1cc([C@@H]2C3C(=O)c4ccccc4C3[C@@H](c3cc(OC)c(OC)c(OC)c3)C23Cc2ccccc2C3=O)cc(OC)c1OC (stereo not given in full)
Reply: no (0)

Ask: Kindly provide the recorded test outcome for the following compound: CC1CCCc2c(C#N)c(N)nc(-c3ccc(Cl)cc3)c21 (stereo not given)
Reply: no (0)

Further cases:
Ask: Kindly provide the recorded test outcome for the following compound: `O=C1/C(=C/c2ccc(O)c([N+](=O)[O-])c2)CCC/C1=C\c1ccc(O)c([N+](=O)[O-])c1`
Reply: no (0)
